IC50 values for SYK kinase (Homo sapiens), compiled from several publications.

Some compounds with known IC50 results, for comparison:
COc1cc(OC)c2nc(Nc3cnn(C(C)C)c3)c3[nH]ncc3c2c1; 100 to 1000 nM
CC(C)c1cc(NC(=O)Nc2ccc(Oc3ccnc(Nc4ccc5[nH]ncc5c4)n3)c3ccccc23)n(-c2ccc(OCCN3CCOCC3)cc2)n1; 5 nM
CC1(C)C(=O)Nc2cc(Nc3nc4c(-c5cccc6[nH]ncc56)nccn4n3)ccc21; < 100 nM

Answer with the recorded IC50 of `CN1c2ccc(Nc3nc4c(-c5cnn(C)c5)nccn4n3)cc2CS1(=O)=O` only.
100 to 300 nM

Answer with the recorded IC50 of `COCCn1cc(Nc2nc3ccc(OC)cc3c3c[nH]nc23)cn1` only.
100 to 1000 nM

---

IC50 values for SYK kinase (Homo sapiens), compiled from several publications.
// units = nM; emit number, no label

Some compounds with known IC50 results, for comparison:
CN(C)c1ccc(-c2cc3nccnc3c(OCC3CCCCO3)n2)cc1 (centres unmarked); 405
c1cn2cc(-c3cnc4c(c3)NCCO4)nc(Nc3ccc4c(c3)OC[C@H]3COCCN43)c2n1; 9
CCS(=O)(=O)N1CCO[C@H](COc2nc(-c3ccc(N(C)C)cc3)cc3nccnc23)C1; 32
CS(=O)(=O)N1CCO[C@H](COc2nc(-c3ccc(C4CCOCC4)cc3)cc3nccnc23)C1; 52
CC(=O)N1CCO[C@H](COc2nc(-c3ccc(C(C)C)cc3)cc3nccnc23)C1; 102
N[C@H]1CCCC[C@H]1Nc1cc2cn[nH]c(=O)c2c(Nc2cccc3occc23)n1; 2

State IC50 on SYK kinase (Homo sapiens). Entry: COc1cc(Nc2cc(Oc3ccc(NC(=O)Nc4cc(C(C)(C)C)cc([S+](C)[O-])c4OC)c4ccccc34)ccn2)cc(C(=O)NCCN2CC[S+]([O-])CC2)c1 (centres unmarked)
124

State IC50 on SYK kinase (Homo sapiens). Entry: `N[C@H]1CCCC[C@H]1Nc1nc(-c2cc3cnccc3s2)c2c(c1F)CNC2=O`
0.316

State IC50 on SYK kinase (Homo sapiens). Entry: `CCc1cc(-c2nc(N[C@@H]3CCCC[C@@H]3N)c(F)c3c2C(=O)NC3)sn1`
1.26

---

pIC50: −log10 of the molar value.
pIC50 values for SYK kinase (Homo sapiens), compiled from several publications.

Some molecules with known pIC50 results, for comparison:
COc1cc(-c2cc3nccc(-c4c(OC)cncc4OC)c3o2)cc(OC)c1OC; > 7.00
CNC(=O)N1CCO[C@H](COc2nc(-c3ccc(N(C)C)cc3)cc3nccnc23)C1; 7.55
CC(C)(C)N1CCC(n2cc(Nc3nc(-c4ccc5cn[nH]c5c4)nc4cn[nH]c34)cn2)CC1; > 8.00
COCCn1cc(Nc2nc(-c3cnn(C)c3)nc3cn[nH]c23)cn1; 6.00 to 7.00
c1cc(N2CCOCC2)ccc1Nc1nc(-c2ccc3[nH]ncc3c2)nc2cn[nH]c12; 7.00 to 8.00

Answer with the recorded pIC50 of `COc1ccc2c(c1)CCN2c1nccn2nc(Nc3ccc4c(c3)NC(=O)C4(C)C)nc12` only.
> 7.00

Answer with the recorded pIC50 of `CCOc1ccc(-c2nc([C@H]3C[C@@H](O)CN3C(C)=O)n3c2cnc2[nH]ccc23)cc1` only.
7.52 to 8.00

Answer with the recorded pIC50 of `CC(=O)N1C[C@H](O)C[C@@H]1c1nc(-c2ccc(OCC3CC3)cc2)c2cnc3[nH]ccc3n12` only.
7.52 to 8.00

---

pIC50 values for SYK kinase (Homo sapiens, UniProt P43405), compiled from several publications.
pIC50: −log10 of the molar value.

Some molecules with known pIC50 results, for comparison:
COc1cc(Nc2nc3c(N4CCC(N)CC4)nccn3n2)cc(OC)c1; 5.52 to 6.52
CN1CCC(n2cc(Nc3nc(-c4ccoc4)nc4cn[nH]c34)cn2)CC1; > 8.00
CS(=O)(=O)c1ccc2nc(Nc3cnn(C4CCOCC4)c3)c3[nH]ncc3c2c1; 7.00 to 8.00
CCOc1c(NC(=O)Nc2ccc(Oc3ccnc(Nc4cc(OC)cc(OCCOCCOCCOC)c4)n3)c3ccccc23)cc(C(C)(C)C)cc1NS(C)(=O)=O; 6.92
COc1ccc(-c2cc3nccnc3c(OC[C@@H]3CN(S(C)(=O)=O)CCO3)n2)cc1; 7.08

State pIC50 on SYK kinase (Homo sapiens, UniProt P43405). Entry: `COc1ccc(-n2nc(C(C)(C)C)cc2NC(=O)Nc2ccc(OCc3ccnc(Nc4cncc(C5CC5)n4)c3)c3ccccc23)cc1`
5.17

State pIC50 on SYK kinase (Homo sapiens, UniProt P43405). Entry: CCC1C(=O)NCCN1c1ncc(-c2cccc(Nc3nccc(C(C)C)n3)c2)o1 (centres unmarked)
≥ 7.00

State pIC50 on SYK kinase (Homo sapiens, UniProt P43405). Entry: `CC1(C)C(=O)Nc2cc(Nc3nc4c(N5CCC(c6ncc(C(F)(F)F)[nH]6)CC5)nccn4n3)ccc21`
> 7.00

---

IC50 values for SYK kinase (Homo sapiens), compiled from several publications.

Some compounds with known IC50 results, for comparison:
COCC(C)(C)n1cc(Nc2nc3cccc(OC)c3c3cn[nH]c23)cn1; 100 to 1000 nM
CC(=O)N1CCC(n2cc(Nc3nc(-c4ncco4)nc4cn[nH]c34)cn2)CC1; 100 to 1000 nM
COCCOCCOCCOc1cc(Nc2cc(Oc3ccc(NC(=O)Nc4cc(C(C)(C)C)cc(CP(C)(C)=O)c4OC)c4ccccc34)ccn2)cc(OC)c1; 123 nM
COc1cc(-c2cc3nccc(-c4ccnc(O)c4)c3o2)cc(OC)c1OC; 300 to 3000 nM

Answer with the recorded IC50 of `COc1ccc(Nc2nc(-c3ccco3)nc3cn[nH]c23)cc1OC` only.
10 to 100 nM

Answer with the recorded IC50 of COc1cc(-c2cc3nccc(-c4cccc(C(=O)NC5CCCCC5N)c4)c3o2)cc(OC)c1OC (stereo not drawn) only.
< 300 nM

Answer with the recorded IC50 of `Cc1cccc(-n2nc(C(C)(C)C)cc2NC(=O)Nc2ccc(OCc3ccnc(Nc4cnccn4)c3)c3ccccc23)c1` only.
> 16700 nM

Answer with the recorded IC50 of `COc1cc(Nc2cc(Oc3ccc(NC(=O)Nc4cc(C(C)(C)C)cc(NS(C)(=O)=O)c4OC)c4ccccc34)ccn2)ccc1C(=O)NCCCN1CCCOCC1` only.
33 nM

Answer with the recorded IC50 of `CC(C)(O)c1ccc(-c2cc3nccc(-c4ccc(C(C)(C)O)cc4)c3o2)cc1` only.
300 to 3000 nM

Answer with the recorded IC50 of `CS(=O)(=O)N1CCC(c2ccc(-c3cc4nccnc4c(OC[C@@H]4CN(S(C)(=O)=O)CCO4)n3)cc2)CC1` only.
14 nM

Answer with the recorded IC50 of `CC1(C)C(=O)Nc2cc(Nc3nc4c(N[C@H]5C[C@H](N)C5)nccn4n3)ccc21` only.
300 to 3000 nM

Answer with the recorded IC50 of `c1nn(C2CCOCC2)cc1Nc1nc(-c2ccc3[nH]ncc3c2)nc2cn[nH]c12` only.
10 to 100 nM

Answer with the recorded IC50 of `Cc1c(Nc2nc3ccc(S(C)(=O)=O)cc3c3cn[nH]c23)cnn1C(C)C` only.
100 to 1000 nM

Answer with the recorded IC50 of `COc1ccc(-c2cc3nccnc3c(OC[C@@H]3CN(C(C)=O)CCO3)n2)cc1OC` only.
109 nM

Answer with the recorded IC50 of `COc1cc(Nc2cc(Oc3ccc(NC(=O)Nc4cc(C(C)(C)C)cc(CC(N)=O)c4OC)c4ccccc34)ccn2)cc(S(=O)(=O)C2CC2)c1` only.
> 1380 nM

---

IC50 values for SYK kinase (Homo sapiens, UniProt P43405), compiled from several publications.

Cc1ccccc1COc1cccc(Nc2nccc(-c3nccs3)n2)c1; > 2000 nM

State IC50 on SYK kinase (Homo sapiens, UniProt P43405). Entry: `COc1cccc2nc(Nc3cnn(CC(C)(C)O)c3)c3[nH]ncc3c12`
100 to 1000 nM

State IC50 on SYK kinase (Homo sapiens, UniProt P43405). Entry: `COc1cc(-c2cc3nccc(-c4cccc(C(=O)N[C@H]5C[C@H](N)C5)c4)c3o2)cc(OC)c1OC`
300 to 3000 nM

State IC50 on SYK kinase (Homo sapiens, UniProt P43405). Entry: `Cn1ccc2c(Nc3nc(N[C@@H]4CCCC[C@@H]4N)cc4cn[nH]c(=O)c34)cccc21`
0.6 nM

State IC50 on SYK kinase (Homo sapiens, UniProt P43405). Entry: `COc1cc(OCCN)ccc1-c1cc2nccc(-c3ccc4[nH]cnc4c3)c2o1`
300 to 3000 nM

State IC50 on SYK kinase (Homo sapiens, UniProt P43405). Entry: `CC(C)(C)c1cc(NC(=O)Nc2ccc(Oc3ccnc(Nc4ccc5[nH]ncc5c4)n3)c3ccccc23)n(-c2ccc(=O)n(CCO)c2)n1`
16 nM

State IC50 on SYK kinase (Homo sapiens, UniProt P43405). Entry: `COc1ccccc1-n1c(=O)[nH]c2c(C(N)=O)nc(-c3ccnc(O)c3)nc21`
> 30000 nM

State IC50 on SYK kinase (Homo sapiens, UniProt P43405). Entry: `NC(=O)N1CCO[C@H](COc2nc(-c3ccc(C4CCOCC4)cc3)cc3nccnc23)C1`
47 nM
